target: A3G (Homo sapiens, UniProt Q9HC16); construct: Myc (C); His6 (C); made in house; host or cells: 293T cells (human embryonic kidney), transfected with pcDNA3.1-A3GMyc-His6, Ni-NTA purified; type: biochemical; settings: peptide at 1 μM, FIG. 15B
Sequence (Q9HC16 whole entry): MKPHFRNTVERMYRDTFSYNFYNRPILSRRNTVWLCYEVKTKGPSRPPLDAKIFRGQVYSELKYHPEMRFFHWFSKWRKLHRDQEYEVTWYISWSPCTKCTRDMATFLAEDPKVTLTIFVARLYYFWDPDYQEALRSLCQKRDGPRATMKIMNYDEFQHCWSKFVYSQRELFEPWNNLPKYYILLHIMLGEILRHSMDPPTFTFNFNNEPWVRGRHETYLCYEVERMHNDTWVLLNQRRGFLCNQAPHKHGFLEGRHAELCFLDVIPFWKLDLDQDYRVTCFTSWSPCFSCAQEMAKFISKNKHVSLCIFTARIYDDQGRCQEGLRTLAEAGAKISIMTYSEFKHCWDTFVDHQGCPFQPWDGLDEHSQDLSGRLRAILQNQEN
ENDPOINT LABEL: inhibition of A3G deaminase activity

SEQ TEXT | SYSTEM NAME | ENDPOINT LABEL | MEASURED VALUE
DCFSESAIRNAILGH (Viral - Vif peptide) [Vif113-127] | A3G (Homo sapiens, UniProt Q9HC16) | inhibition of A3G deaminase activity | inhibited
DLADQLIHLYYFDCF (Viral - Vif peptide) [Vif101-115] | A3G (Homo sapiens, UniProt Q9HC16) | inhibition of A3G deaminase activity | inhibited
GWFYRHHYESTHPRI (Viral - Vif peptide) [Vif37-51] | A3G (Homo sapiens, UniProt Q9HC16) | inhibition of A3G deaminase activity | inhibited
IVWQVDRMRIRTWKS [Vif9-23] | A3G (Homo sapiens, UniProt Q9HC16) | inhibition of A3G deaminase activity | inhibited

Where do the numbers come from? From patent US20150111836A1.
